# TARGET OR TEST SYSTEM: Somatostatin receptor type 4 (Homo sapiens)
# Sequence (P31391 whole entry): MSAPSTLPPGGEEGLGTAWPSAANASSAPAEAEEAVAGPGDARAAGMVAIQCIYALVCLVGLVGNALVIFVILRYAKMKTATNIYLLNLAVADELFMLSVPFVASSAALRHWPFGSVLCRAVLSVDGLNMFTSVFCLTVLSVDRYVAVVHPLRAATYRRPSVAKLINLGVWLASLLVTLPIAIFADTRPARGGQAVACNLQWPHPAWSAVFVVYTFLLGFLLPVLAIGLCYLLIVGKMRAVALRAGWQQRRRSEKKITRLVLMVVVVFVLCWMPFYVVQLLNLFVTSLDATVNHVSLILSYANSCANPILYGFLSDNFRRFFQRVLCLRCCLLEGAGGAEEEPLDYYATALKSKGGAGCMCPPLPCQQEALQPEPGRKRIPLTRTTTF
# ASSAY REMARKS: In vitro inhibition of [125I][Leu8,D-Trp22,Tyr25] somatostatin 28 binding to human somatostatin receptor type 4 expressed in CCL39 cells; (n=3)
# Assay type: cell-based
MEASUREMENT KIND: pIC50
API: returns pIC50 as number; meaning -log10 of concentration in mol/L.

smiles=C[C@@H](O)[C@H](NC(=O)[C@@H]1CSSC[C@H](NC(=O)[C@@H](Cc2ccccc2)NC[C@]2(O)OC[C@H](O)[C@@H](O[C@@H]3O[C@@H](CO)[C@@H](O)[C@H](O)[C@@H]3O)[C@@H]2O)C(=O)N[C@@H](Cc2ccc(O)c(I)c2)C(=O)N[C@H](Cc2c[nH]c3ccccc23)C(=O)N[C@@H](CCCCN)C(=O)N[C@@H]([C@@H](C)O)C(=O)N1)C(=O)O target_or_test_system="Somatostatin receptor type 4 (Homo sapiens)" measurement_kind=pIC50 measurement=6.10
smiles=C[C@@H](O)[C@H](NC(=O)[C@@H]1CSSC[C@H](NC(=O)[C@@H](Cc2ccccc2)NC(=O)CCS[C@@H]2O[C@@H](CO)[C@@H](O)[C@H](O)[C@@H]2O)C(=O)N[C@@H](Cc2ccc(O)c(I)c2)C(=O)N[C@H](Cc2c[nH]c3ccccc23)C(=O)N[C@@H](CCCCN)C(=O)N[C@@H]([C@@H](C)O)C(=O)N1)C(=O)O target_or_test_system="Somatostatin receptor type 4 (Homo sapiens)" measurement_kind=pIC50 measurement=6.45
smiles=C[C@@H](O)[C@H](NC(=O)[C@@H]1CSSC[C@H](NC(=O)[C@@H](Cc2ccccc2)NC(=O)CCS[C@@H]2O[C@@H](CO)[C@H](O)[C@H](O)[C@@H]2O)C(=O)N[C@@H](Cc2ccc(O)c(I)c2)C(=O)N[C@H](Cc2c[nH]c3ccccc23)C(=O)N[C@@H](CCCCN)C(=O)N[C@@H]([C@@H](C)O)C(=O)N1)C(=O)O target_or_test_system="Somatostatin receptor type 4 (Homo sapiens)" measurement_kind=pIC50 measurement=6.32
smiles=C[C@@H](O)[C@H](NC(=O)[C@@H]1CSSC[C@H](NC(=O)[C@@H](Cc2ccccc2)NC[C@]2(O)OC[C@H](O)[C@@H](O[C@@H]3O[C@@H](CO)[C@@H](O[C@@H]4O[C@@H](CO)[C@@H](O)[C@H](O)[C@@H]4O)[C@H](O)[C@@H]3O)[C@@H]2O)C(=O)N[C@@H](Cc2ccc(O)c(I)c2)C(=O)N[C@H](Cc2c[nH]c3ccccc23)C(=O)N[C@@H](CCCCN)C(=O)N[C@@H]([C@@H](C)O)C(=O)N1)C(=O)O target_or_test_system="Somatostatin receptor type 4 (Homo sapiens)" measurement_kind=pIC50 measurement=6.08

Shifting focus to the compound that follows.
Q) Would you mind telling me what pIC50 value was observed for C[C@@H](O)[C@@H]1NC(=O)[C@H](CCCCN)NC(=O)[C@@H](Cc2c[nH]c3ccccc23)NC(=O)[C@H](Cc2ccc(O)c(I)c2)NC(=O)[C@@H](NC(=O)[C@@H](Cc2ccccc2)NC[C@]2(O)OC[C@H](O)[C@@H](O)[C@@H]2O)CSSC[C@@H](C(=O)N[C@H](CO)[C@@H](C)O)NC1=O ?
A) 6.08
